The reported measurements were obtained from patent US7399745.

TARGET_OF_ASSAY: T1, GLP-1 receptor (rat), P32301
T1 chain: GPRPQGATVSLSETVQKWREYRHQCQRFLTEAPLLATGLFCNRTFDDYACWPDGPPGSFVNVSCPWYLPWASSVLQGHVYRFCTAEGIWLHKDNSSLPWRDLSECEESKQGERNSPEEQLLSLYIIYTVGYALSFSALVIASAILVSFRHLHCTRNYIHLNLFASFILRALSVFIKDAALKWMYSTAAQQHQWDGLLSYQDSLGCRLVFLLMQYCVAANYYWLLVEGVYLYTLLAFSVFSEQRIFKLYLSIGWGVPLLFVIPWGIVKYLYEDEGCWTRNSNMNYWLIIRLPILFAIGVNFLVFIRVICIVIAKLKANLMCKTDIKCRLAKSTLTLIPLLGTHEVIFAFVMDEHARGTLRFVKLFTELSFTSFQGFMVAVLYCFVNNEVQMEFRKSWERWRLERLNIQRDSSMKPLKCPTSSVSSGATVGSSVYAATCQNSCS
ASSAY_REMARKS: competition
PARTICULARS: modification not given
pIC50: −log10 of the molar value.
Would you mind labelling by pIC50? At or over 8 is 1, under is 0.

Example entries begin here.
HSQGTFTSDYARYLDARRAREFIKWLVRGRG [G83] ... 1
HSQGTFTSDYARYLDARRAKEFIKWLVRGRG [G183] ... 0
HSQGTFTSDYARYLDARRAREFIAWLVKGRG [G84] ... 1

// query Confirm if pIC50 reported for the binder HSQGTFTSDYAKYLDARRAKEFIAWLVKGR [G27] is 8 or above.
// result 1
